- test.target: cAMP and cAMP-inhibited cGMP 3',5'-cyclic phosphodiesterase 10A (Homo sapiens, UniProt Q9Y233)
- Sequence (Q9Y233 whole entry): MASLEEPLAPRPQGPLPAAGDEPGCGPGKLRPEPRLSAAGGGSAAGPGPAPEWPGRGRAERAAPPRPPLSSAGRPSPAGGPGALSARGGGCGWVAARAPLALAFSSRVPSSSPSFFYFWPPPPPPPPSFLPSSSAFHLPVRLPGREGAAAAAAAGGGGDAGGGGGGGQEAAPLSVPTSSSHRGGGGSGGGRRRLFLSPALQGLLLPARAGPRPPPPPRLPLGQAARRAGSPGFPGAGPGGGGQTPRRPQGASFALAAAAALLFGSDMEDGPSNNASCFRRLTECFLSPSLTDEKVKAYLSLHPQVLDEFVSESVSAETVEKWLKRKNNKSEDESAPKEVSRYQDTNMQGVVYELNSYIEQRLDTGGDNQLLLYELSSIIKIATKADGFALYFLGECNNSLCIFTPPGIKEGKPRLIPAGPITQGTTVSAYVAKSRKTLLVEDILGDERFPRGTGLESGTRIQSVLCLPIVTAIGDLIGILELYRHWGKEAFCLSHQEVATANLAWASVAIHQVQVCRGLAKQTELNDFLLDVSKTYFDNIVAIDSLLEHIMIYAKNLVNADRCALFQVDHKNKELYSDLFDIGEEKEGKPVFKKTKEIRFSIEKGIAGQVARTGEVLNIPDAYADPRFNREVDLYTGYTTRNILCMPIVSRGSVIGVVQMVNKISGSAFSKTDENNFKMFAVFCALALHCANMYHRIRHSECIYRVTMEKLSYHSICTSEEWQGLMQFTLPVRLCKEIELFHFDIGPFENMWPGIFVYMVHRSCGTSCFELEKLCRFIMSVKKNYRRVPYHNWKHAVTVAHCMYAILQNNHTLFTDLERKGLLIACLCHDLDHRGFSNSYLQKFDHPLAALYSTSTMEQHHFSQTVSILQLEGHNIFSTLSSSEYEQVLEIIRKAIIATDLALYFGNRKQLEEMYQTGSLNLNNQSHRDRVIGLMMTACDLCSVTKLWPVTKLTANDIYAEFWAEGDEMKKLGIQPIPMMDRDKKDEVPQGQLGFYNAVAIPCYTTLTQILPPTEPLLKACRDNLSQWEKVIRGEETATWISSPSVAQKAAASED
Lab note - cut at 20 nM for IC50: T if strictly below, F if not.

[
  {
    "entry.smiles": "c1cnc(Oc2ccc(Nc3nc4ccccc4s3)cc2)c(-c2ccc3c(c2)CCO3)c1",
    "label": "F"
  },
  {
    "entry.smiles": "C[C@]1(O)CC[C@@H](c2cccnc2Oc2ccc(C(=O)c3nc4ccccc4[nH]3)cc2)C1",
    "label": "T"
  },
  {
    "entry.smiles": "O=C(c1ccc(Oc2ncccc2-c2ccncc2)cc1)c1nc2ccccc2[nH]1",
    "label": "T"
  },
  {
    "entry.smiles": "O=C(c1ccc(Oc2ncccc2-c2cnn(C3CC3)c2)cc1)c1nc2ccccc2[nH]1",
    "label": "F"
  },
  {
    "entry.smiles": "C[C@@H](CNC(=O)c1cccnc1Oc1ccc(C(=O)c2nc3ccccc3[nH]2)cc1)c1ccccc1",
    "label": "T"
  }
]

INPUT: In plain terms, does COc1cncc(-c2cccnc2Oc2ccc(C(=O)c3nc4ccccc4[nH]3)cc2)c1 come in under 20 nM for IC50?
OUTPUT: T

INPUT: In plain terms, does O=C(c1ccc(Oc2ncccc2C(=O)NCCc2ccccc2)cc1)c1nc2ccccc2[nH]1 come in under 20 nM for IC50?
OUTPUT: T

INPUT: In plain terms, does c1cnc(Oc2ccc(Nc3nc4ccccc4s3)cc2)c(-c2ccc3c(c2)OCCO3)c1 come in under 20 nM for IC50?
OUTPUT: F

The origin of these recorded values is ChEMBL document CHEMBL3638462.
